- testTarget: Microtubule-associated protein tau (Homo sapiens) (UniProt P10636)
- Sequence (P10636 whole entry): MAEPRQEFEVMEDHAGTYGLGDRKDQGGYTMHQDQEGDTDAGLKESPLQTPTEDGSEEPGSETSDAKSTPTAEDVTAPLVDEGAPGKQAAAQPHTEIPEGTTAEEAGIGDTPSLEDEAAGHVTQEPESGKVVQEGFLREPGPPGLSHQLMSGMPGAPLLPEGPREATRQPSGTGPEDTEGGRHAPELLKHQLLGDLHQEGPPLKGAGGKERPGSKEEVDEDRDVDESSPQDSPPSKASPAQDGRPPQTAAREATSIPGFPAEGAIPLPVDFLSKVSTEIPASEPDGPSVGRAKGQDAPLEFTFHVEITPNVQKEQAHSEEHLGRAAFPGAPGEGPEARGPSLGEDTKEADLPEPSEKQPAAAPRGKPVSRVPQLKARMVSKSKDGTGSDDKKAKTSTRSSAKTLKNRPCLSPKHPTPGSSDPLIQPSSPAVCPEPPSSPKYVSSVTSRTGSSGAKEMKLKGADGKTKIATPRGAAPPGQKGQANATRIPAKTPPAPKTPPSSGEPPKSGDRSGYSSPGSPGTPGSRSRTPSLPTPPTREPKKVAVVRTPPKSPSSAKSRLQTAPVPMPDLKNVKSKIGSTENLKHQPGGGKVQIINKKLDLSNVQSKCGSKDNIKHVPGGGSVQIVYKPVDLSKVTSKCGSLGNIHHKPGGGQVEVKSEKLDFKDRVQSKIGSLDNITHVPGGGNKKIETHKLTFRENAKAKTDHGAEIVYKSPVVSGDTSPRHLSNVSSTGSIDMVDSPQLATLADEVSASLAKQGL
- protocolSummary: Inhibition of tau (unknown origin) at 5 uM relative to control
As shown below, each of these compounds has a reported inhibition value.
A number alone suffices; assume %.

// returns reported inhibition for input OC1CN(c2cc(-c3cccc(C(O)C(F)(F)F)c3)cc3nonc23)C1 (centres undefined)
87

***
What does the record list as inhibition for CN(Cc1ccc(F)cc1)c1cc(C(O)C(F)(F)F)cc2nonc12 (centres undefined) ?
78

Look up inhibition for this compound: OC(c1cccc(-c2cc(N3CCC(N4CCCC4)CC3)c3nonc3c2)c1)C(F)(F)F (centres undefined)
64

Could you tell me which inhibition is on file for COC1CN(c2cc(-c3cccc(C(O)C(F)(F)F)c3)cc3nonc23)C1 (centres undefined) ?
89

====

- protocolSummary: Half life in human liver microsomes
- Assay type: ADME
readoutName: half-life

Need half-life of `NS(=O)(=O)CC(=O)NCCSc1nonc1/C(=N/O)Nc1cccc(Cl)c1` , thanks.
> 3 h

====

- Test system: Daudi
- protocolSummary: Antiproliferative activity against human Daudi assessed as inhibition of cell proliferation by MTT assay
- Assay type: functional, cell-based
Rule: EC50 below 3 µM gives Yes. Equal to or above 3 µM gives No.

Before answering, review these 5 worked examples.
Is EC50 strictly under 3 µM for the entry `O=C(OCC(F)(F)F)c1ccc(Nc2ccc([N+](=O)[O-])c3nonc23)cc1` ?
Yes

Does `COC(=O)c1ccc(Nc2ccc([N+](=O)[O-])c3nonc23)c(-c2ccc(C)cc2)c1` have EC50 strictly under 3 µM?
Yes

Does the reported EC50 of the following compound sit strictly below 3 µM? `O=C(Oc1ccccc1)c1ccccc1Nc1ccc([N+](=O)[O-])c2nonc12`
No

Is 3 µM strictly greater than the compound's reported EC50? compound: `O=C(O)c1ccc(-c2ccccc2Nc2ccc([N+](=O)[O-])c3nonc23)cc1`
No

Bench note: check whether `O=[N+]([O-])c1ccc(Nc2ccccc2-c2ccccc2)c2nonc12` shows EC50 below 3 µM
No

We next turn to a different compound, shown below.
Quick check: does `O=C(OCc1ccccc1)c1ccc(Nc2ccc([N+](=O)[O-])c3nonc23)cc1` have EC50 under 3 µM?
No

====

- System: MDR1
- protocolSummary: Efflux ratio of permeability in dog MDCK-MDR1 cells
- Assay type: ADME, cell-based, Canis lupus familiaris
readoutName: efflux ratio
Respond numerically, and do not add a unit to the figure.

Give its efflux ratio value. Item: `COc1cc2c(cc1OC)CN(Cc1ccc(-c3ccc(OCCOc4nonc4OC)cc3)cc1)CC2`
0.6

Given the entry `COc1cc2c(cc1OC)CN(Cc1ccc(-c3ccc(O)cc3)cc1)CC2` , report its measured efflux ratio.
0.69

Note: attention shifts to another entry.
Returns the measured efflux ratio for the input compound. Input: CCCOc1cccc2c1CCCC2CCCN1CCc2cc(OC)c(OC)cc2C1 (stereo not drawn)
0.35

====

// reported ED50 for each item listed
- Species on record: Rattus norvegicus
- protocolSummary: Anti-inflammatory activity against ovalbumin induced lung inflammatory rat model assessed as reduction in eosinophil influx
- Type: functional
Respond with the bare value in µmol/kg.

Look over these answered cases.
What value of measured ED50 is listed for `O=C(O)c1ccc(-c2cc3cccnc3c(-c3ccc4nonc4c3)n2)cc1` ?
0.0003

Reported ED50, compound COc1ccc([C@]2(C#N)CC[C@@H](C(=O)O)CC2)cc1OC1CCCC1 [CILOMILAST] : ____
0.017

Further cases:
ED50 lookup needed for O=C(Nc1c(Cl)cncc1Cl)c1ccc(OC(F)F)c(OCC2CC2)c1 [ROFLUMILAST] , thanks.
0.0018

What does the record list as ED50 for `O=C(O)[C@H]1CC[C@H](c2cc3cccnc3c(-c3cccc(F)c3)n2)CC1` ?
0.0034

====

- protocolSummary: Binding affinity to human wild type HIF2alpha assessed as dissociation constant by calorimetry assay
compounds and their reported pKd
// field semantics: pKd = negative decimal log of concentration (mol/L)

Requested read-out: pKd. Entry: `O=[N+]([O-])c1c(Nc2cc(F)cc(Cl)c2)ccc2nonc12`
7.10

Let us move to another entry and its pKd.
Look up pKd: `Fc1cc(Br)cc([C@@H]2C[C@H](c3cccc(Br)c3)n3nnnc3N2)c1`
7.64

====

Recorded measurements of inhibition, one per entry
- testTarget: Mitogen-activated protein kinase 14 (Homo sapiens)
- protocolSummary: Inhibition of recombinant p38alpha MAPK (unknown origin) at 10 uM preincubated for 10 mins followed by substrate addition and measured after 40 mins in the presence of ATP by ADP-Glo assay
- experimentalParameters: time 60.0 min
Give the quantity in %, number only.

Given `CCCOc1ccc(Nc2nc3nonc3nc2N2CCC(Oc3ccc(Cl)cc3)CC2)cc1` , state its recorded inhibition.
99

Need inhibition, item `CCCNC(=O)c1ccc(Nc2nc3nonc3nc2N2CCC(Sc3ccc(C)cc3)CC2)cc1`
90

Next:
Any idea what inhibition was measured for `CCOC(=O)c1ccc(Nc2nc3nonc3nc2N2CCC(Sc3ccc(C)cc3)CC2)cc1` ?
61

====

- testTarget: Amyloid-beta precursor protein (Homo sapiens, UniProt P05067)
- Sequence (P05067 whole entry): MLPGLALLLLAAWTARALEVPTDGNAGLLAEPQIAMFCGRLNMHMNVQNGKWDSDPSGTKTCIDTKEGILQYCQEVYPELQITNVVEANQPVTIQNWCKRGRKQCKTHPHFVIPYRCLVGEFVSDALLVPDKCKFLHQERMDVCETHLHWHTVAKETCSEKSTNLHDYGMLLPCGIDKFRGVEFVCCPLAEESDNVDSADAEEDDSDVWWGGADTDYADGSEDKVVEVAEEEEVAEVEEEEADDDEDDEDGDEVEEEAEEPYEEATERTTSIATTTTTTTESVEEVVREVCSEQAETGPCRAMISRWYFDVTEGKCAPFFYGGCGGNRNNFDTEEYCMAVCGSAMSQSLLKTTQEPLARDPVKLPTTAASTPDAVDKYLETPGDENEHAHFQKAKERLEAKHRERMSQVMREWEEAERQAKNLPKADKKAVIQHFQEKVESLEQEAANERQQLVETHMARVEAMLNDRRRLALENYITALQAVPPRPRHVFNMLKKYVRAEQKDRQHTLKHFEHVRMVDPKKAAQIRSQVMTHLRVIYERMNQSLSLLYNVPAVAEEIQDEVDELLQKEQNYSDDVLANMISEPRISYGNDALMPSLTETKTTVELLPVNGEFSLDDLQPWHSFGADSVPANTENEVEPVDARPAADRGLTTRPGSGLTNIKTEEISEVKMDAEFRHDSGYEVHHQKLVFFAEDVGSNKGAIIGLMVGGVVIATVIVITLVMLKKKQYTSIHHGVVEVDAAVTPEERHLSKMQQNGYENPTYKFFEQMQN
- protocolSummary: Inhibition of amyloid beta 42 in human H4 cells
- Assay type: cell-based
readoutName: pEC50
// pEC50: -log10(molar conc.)

Given the entry `O=C(O)[C@H](CC1CCC1)c1cc(Cl)c(OCC(F)(F)F)c(-c2ccc(C(F)(F)F)cc2)c1` , report its measured pEC50.
7.15

====

- testTarget: Amyloid-beta precursor protein (Homo sapiens, UniProt P05067)
- protocolSummary: Inhibition of amyloid beta 42 in human HEK293 cells
- Format: cell-based
readoutName: pEC50
Notebook: values listed as pEC50 are -log10 of the concentration (mol/L).

Return reported pEC50; argument: CC(C)CC(C(=O)O)c1cc(Cl)c(OCC2CC2)c(-c2ccc(C(F)(F)F)cc2)c1 (configuration not stated)
7.15

Shift focus to the following entry.
May I ask what pEC50 has been recorded for CC(C)CC(C(=O)O)c1cc(Cl)c(OCC2CC2)c(-c2ccc3nonc3c2)c1 (configuration not stated) ?
6.57

====

- testTarget: Mitogen-activated protein kinase 14 (Homo sapiens) (UniProt Q16539)
- Sequence (Q16539 whole entry): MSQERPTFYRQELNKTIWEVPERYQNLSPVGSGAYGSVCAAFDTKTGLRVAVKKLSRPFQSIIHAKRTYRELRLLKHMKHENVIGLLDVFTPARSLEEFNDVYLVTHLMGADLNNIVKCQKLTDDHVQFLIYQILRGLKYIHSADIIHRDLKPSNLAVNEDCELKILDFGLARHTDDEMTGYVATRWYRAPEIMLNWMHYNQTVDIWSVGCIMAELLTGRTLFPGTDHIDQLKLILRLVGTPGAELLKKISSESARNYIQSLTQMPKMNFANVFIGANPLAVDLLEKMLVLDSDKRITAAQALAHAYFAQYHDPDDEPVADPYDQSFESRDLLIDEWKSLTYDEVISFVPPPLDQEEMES
- protocolSummary: Inhibition of recombinant p38alpha MAPK (unknown origin) at 10 uM preincubated for 10 mins followed by substrate addition and measured after 40 mins in the presence of ATP by ADP-Glo assay
- experimentalParameters: time 60.0 min
# inhibition values compiled below
Only the number, expressed in %, is required.

These solved cases illustrate the format of a correct answer.
Form field: reported inhibition of `Clc1ccc(OC2CCN(c3nc4nonc4nc3Nc3ccc4occc4c3)CC2)cc1`
95

Give its inhibition value. Item: `CCCOc1ccc(Nc2nc3nonc3nc2N2CCC(Sc3ccc(C)cc3)CC2)cc1`
100

// returns reported inhibition for input `CCOC(=O)c1ccc(Nc2nc3nonc3nc2N2CCC(Sc3ccc(Cl)cc3)CC2)cc1`
86

What value of inhibition has been recorded for this entry: `COC(=O)c1ccc(Nc2nc3nonc3nc2N2CCC(Oc3ccc(Cl)cc3)CC2)cc1`
84

Would you kindly look at the next entry?
What does the record list as inhibition for `CCOC(=O)c1ccc(Nc2nc3nonc3nc2N2CCC(Cc3ccccc3)CC2)cc1` ?
64

====

- Test system: HL-60
- protocolSummary: Antiproliferative activity against human HL-60 cells assessed as inhibition of cell proliferation incubated for 24 hrs by MTT assay
- Type: functional, cell-based
- experimentalParameters: HL-60, 24 h
readoutName: EC50 (nM)
Unit nM implied. Number only.

Entry `Nc1nonc1C(=O)N/N=C1\c2ccccc2-c2nc3nonc3nc21` , system HL-60: what EC50 was measured?
1200

====

- protocolSummary: Stability in rat assessed as intrinsic clearance
- Type: ADME
- experimentalParameters: CLH
In this section, each of the molecules is paired with its reported CLint scaled.

For the molecule shown here, `NS(=O)(=O)NCCNc1nonc1/C(=N/O)Nc1ccc(F)c(Br)c1` , give the reported CLint scaled.
11.7 mL/min/kg

Others:
Quick one: CLint scaled for `Nc1nonc1C(=NO)Nc1ccc(F)c(Cl)c1` ?
> 36.7 mL/min/kg

====

Overview of reported inhibition across a group of compounds:
- testTarget: UniProtKB P01375
- Sequence (P01375 whole entry, looked up): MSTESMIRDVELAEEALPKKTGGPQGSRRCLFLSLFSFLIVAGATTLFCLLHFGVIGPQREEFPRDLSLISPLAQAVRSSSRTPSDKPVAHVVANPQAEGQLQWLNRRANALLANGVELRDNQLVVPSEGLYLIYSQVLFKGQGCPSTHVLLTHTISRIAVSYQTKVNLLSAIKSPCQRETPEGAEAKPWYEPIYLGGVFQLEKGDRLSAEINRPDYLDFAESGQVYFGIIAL
- protocolSummary: Inhibition of TNF-alpha secretion in human THP-1 cells
- Design: concentration or dose not given beside the values
- experimentalParameters: concentration not given here
The response must be a number in % with no trailing unit.

What reported inhibition corresponds to `COC(=O)c1ccc(Nc2nc3nonc3nc2N2CCC(Oc3ccc(Cl)cc3)CC2)cc1` on UniProtKB P01375?
60

Under UniProtKB P01375: inhibition value of `CCOC(=O)c1ccc(Nc2nc3nonc3nc2N2CCC(Sc3ccc(Cl)cc3)CC2)cc1` ?
36

---
Param readout= inhibition; system= UniProtKB P01375; entry= `CCOC(=O)c1ccc(Nc2nc3nonc3nc2N2CCC(Cc3ccccc3)CC2)cc1` ; returns value.
40

Lab request: please report inhibition under test system UniProtKB P01375 for `CCOC(=O)c1ccc(Nc2nc3nonc3nc2N2CCC(Sc3ccc(C)cc3)CC2)cc1`
32

Form: Entry = `CCCOc1ccc(Nc2nc3nonc3nc2N2CCC(Oc3ccc(Cl)cc3)CC2)cc1` | System = UniProtKB P01375 | inhibition = ____
74

Entry `CCCNC(=O)c1ccc(Nc2nc3nonc3nc2N2CCC(Sc3ccc(C)cc3)CC2)cc1` , system UniProtKB P01375: what inhibition was measured?
60

# value lookup — system UniProtKB P01375, readout inhibition, item `CCCOc1ccc(Nc2nc3nonc3nc2N2CCC(Sc3ccc(C)cc3)CC2)cc1`
65

Report inhibition for `Clc1ccc(OC2CCN(c3nc4nonc4nc3Nc3ccc4occc4c3)CC2)cc1` tested on UniProtKB P01375.
51
